# Experimental system: factor Xa (Homo sapiens, UniProt P00742)
# Sequence (P00742 235-488 limits assumed): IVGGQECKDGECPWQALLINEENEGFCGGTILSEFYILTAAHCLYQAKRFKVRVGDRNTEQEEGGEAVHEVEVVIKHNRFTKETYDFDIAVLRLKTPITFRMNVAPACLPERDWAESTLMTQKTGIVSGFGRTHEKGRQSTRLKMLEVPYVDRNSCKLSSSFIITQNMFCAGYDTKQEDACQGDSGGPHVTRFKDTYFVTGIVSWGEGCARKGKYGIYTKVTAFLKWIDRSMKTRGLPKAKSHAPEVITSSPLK
# Sequence (P00742 41-179 limits assumed): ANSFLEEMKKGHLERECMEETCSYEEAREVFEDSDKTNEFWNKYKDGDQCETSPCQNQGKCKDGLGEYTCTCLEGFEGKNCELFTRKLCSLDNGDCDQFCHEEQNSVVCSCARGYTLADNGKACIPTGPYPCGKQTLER
# Test details: Factor Xa assay (Test 1a), chromogenic
# Format: biochemical
# Parameters: purchased Enzyme Research Laboratories, Inc; South Bend, Ind
# Condition summary: in vitro factor Xa assay Test 1a; human factor Xa 0.5 nM, substrate S-2765 140 μM, 25° C.; Ki from IC50 corrected for substrate competition
Listed here are compounds together with their documented pKi.
Scale explanation: pKi corresponds to minus log10 of a concentration expressed in moles per litre.

Compound: Cc1ccccc1C(Cc1ccc(C(=N)N)cc1)C(=O)NC(C(=O)NCC1CCN(C(=N)N)CC1)C1CCCCC1 (single isomer, unassigned; more polar) [Example 162]
Experimental system: factor Xa (Homo sapiens, UniProt P00742)
Endpoint name: pKi
Value reported: 7.60
//
Compound: CC(=N)N1CCC(CNC(=O)C(NC(=O)C(Cc2ccc(C(=N)N)cc2)c2cccc(Br)c2)C2CCCCC2)CC1 (single isomer, unassigned; less polar)
Experimental system: factor Xa (Homo sapiens, UniProt P00742)
Endpoint name: pKi
Value reported: 9.00

Please examine the following record next.
## Input Entry N=C(N)c1ccc(CC(C(=O)N[C@H](C(=O)NCC2CCN(C(=N)N)CC2)C2CCCCC2)c2ccc(C(F)(F)F)cc2)cc1 (single isomer, unassigned; less polar) has what pKi?
## Output 7.62
